Biological target: Non-receptor tyrosine-protein kinase TYK2 (Homo sapiens, UniProt P29597)
Sequence (P29597 whole entry): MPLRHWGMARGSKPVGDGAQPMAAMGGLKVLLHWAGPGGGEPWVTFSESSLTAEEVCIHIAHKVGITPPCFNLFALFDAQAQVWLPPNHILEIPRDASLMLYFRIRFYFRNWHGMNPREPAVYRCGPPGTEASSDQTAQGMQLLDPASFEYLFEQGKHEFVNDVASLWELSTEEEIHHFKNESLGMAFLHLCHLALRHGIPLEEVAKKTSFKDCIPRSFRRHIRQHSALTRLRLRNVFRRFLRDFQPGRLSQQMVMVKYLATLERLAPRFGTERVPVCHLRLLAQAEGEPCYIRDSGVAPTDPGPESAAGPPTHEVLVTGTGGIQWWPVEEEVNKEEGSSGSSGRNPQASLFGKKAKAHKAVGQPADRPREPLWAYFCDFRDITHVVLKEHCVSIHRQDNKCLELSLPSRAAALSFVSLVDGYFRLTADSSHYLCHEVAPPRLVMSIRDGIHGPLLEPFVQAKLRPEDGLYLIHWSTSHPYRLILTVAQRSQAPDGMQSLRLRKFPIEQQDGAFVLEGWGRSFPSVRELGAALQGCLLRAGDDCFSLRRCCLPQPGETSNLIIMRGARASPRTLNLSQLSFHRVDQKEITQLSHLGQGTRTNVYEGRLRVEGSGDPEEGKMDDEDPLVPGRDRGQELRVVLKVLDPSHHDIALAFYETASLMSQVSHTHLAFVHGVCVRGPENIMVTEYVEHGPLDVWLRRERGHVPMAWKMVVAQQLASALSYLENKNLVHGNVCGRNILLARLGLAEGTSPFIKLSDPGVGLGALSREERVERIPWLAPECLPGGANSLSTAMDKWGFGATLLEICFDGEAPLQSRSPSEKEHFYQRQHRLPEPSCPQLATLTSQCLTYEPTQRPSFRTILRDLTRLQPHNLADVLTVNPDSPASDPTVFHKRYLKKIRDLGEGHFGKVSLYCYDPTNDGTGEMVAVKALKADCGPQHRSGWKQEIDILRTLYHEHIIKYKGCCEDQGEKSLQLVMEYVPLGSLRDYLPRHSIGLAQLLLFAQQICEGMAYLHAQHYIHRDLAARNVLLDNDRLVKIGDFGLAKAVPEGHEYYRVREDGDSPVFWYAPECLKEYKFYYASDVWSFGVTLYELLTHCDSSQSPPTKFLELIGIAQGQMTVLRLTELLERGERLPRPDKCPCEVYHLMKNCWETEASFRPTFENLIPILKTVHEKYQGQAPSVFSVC
Test: Inhibition of TYK2 signal transduction pathway in human PBMC cells assessed as IFNalpha induced p-STAT5 level
Format: cell-based
readout: IC50

These recorded examples may help you get a feel for the data.
[2H]C([2H])([2H])CC(=O)c1cnc(Nc2cccc(C#N)n2)cc1Nc1nccc(-c2ncn(C([2H])([2H])[2H])n2)c1OC | < 100 nM
[2H]C([2H])([2H])CC(=O)c1cnc(NC(=O)C2CC2)cc1Nc1nccc(-c2ncn(C([2H])([2H])[2H])n2)c1OC | < 100 nM
CNC(=O)c1cnc2cc1Nc1cc(cc(-c3ccn(C)n3)c1OC)CCOCc1nc(ccc1C)N2 | ≤ 50 nM

Need IC50 of `CNc1cc2nn3c(cnc13)C(=O)N[C@H](C)COCc1ccc(OC)c(c1)N2` , thanks. 1.2 nM

Item: `[2H]C([2H])([2H])n1nnc2c3cc(cc21)CO[C@@H]1CCC[C@H]1NC(=O)c1cnc2c(NC)cc(nn12)N3` 1.7 nM

Item: `[2H]C([2H])([2H])CC(=O)c1cnc(Nc2cccc(C#N)n2)cc1Nc1cccc(-c2ncn(C([2H])([2H])[2H])n2)c1OC` < 100 nM

Item: `[2H]C([2H])([2H])NC(=O)c1nnc2cc1Nc1cc(cc(-c3ccn(C)n3)c1OC)CCOCc1cccc(n1)N2` ≤ 50 nM
